Experiment: The drug is tested on Bacteroides dorei strain: DSM17855 for biotransformation. The drug concentrations were measured before and after a 12-h incubation by liquid-chromatography-coupled mass spectrometry (LC–MS)
Conditions: phocaeicola dorei, 2 µM
measured.property: Bacterial Biotransformation

Some solved entries appear below for comparison.
molecule	Bacterial Biotransformation
N[C@@H](Cc1ccc(N(CCCl)CCCl)cc1)C(=O)O	Compound metabolized
CN1C[C@H](C(=O)N[C@]2(C)O[C@@]3(O)[C@@H]4CCCN4C(=O)[C@H](Cc4ccccc4)N3C2=O)C=C2c3cccc4[nH]cc(c34)C[C@H]21.CN1C[C@H](C(=O)N[C@]2(C)O[C@@]3(O)[C@@H]4CCCN4C(=O)[C@H](Cc4ccccc4)N3C2=O)C=C2c3cccc4[nH]cc(c34)C[C@H]21.O=C(O)C(O)C(O)C(=O)O [ERGOTAMINE TARTRATE]	Compound metabolized
O=C(O[C@H]1C[C@H]2CC[C@@H](C1)[N+]21CCCC1)C(O)(c1ccccc1)c1ccccc1.[Cl-] [TROSPIUM CHLORIDE]	Compound NOT metabolized
O=C([O-])C[C@H](O)C[C@H](O)/C=C/c1c(C2CC2)nc2ccccc2c1-c1ccc(F)cc1.O=C([O-])C[C@H](O)C[C@H](O)/C=C/c1c(C2CC2)nc2ccccc2c1-c1ccc(F)cc1.[Ca+2] [PITAVASTATIN CALCIUM]	Compound NOT metabolized

Q: What does the record list as Bacterial Biotransformation for CNCCC(Oc1ccc(C(F)(F)F)cc1)c1ccccc1 (stereo not given) [FLUOXETINE] ?
Result: Compound metabolized

Value source: ChEMBL document CHEMBL5303573
